# Tested On: plasminogen kringle 1 (Homo sapiens)
# Construct: Signal intensities from free tranexamic acid are reduced when recombinant kringle 1 protein is added
# Sequence (P00747 103-181 limits assumed): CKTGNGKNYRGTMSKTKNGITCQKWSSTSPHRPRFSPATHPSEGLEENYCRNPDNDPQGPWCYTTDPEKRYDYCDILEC
# Protocol Description: NMR competition assay (1D T1rho) for binding to plasminogen kringle 1, tranexamic acid as reference
Endpoint Name: Kd (µM)

| Smiles Record | Endpoint Value |
| --- | --- |
| O=c1cc([C@H]2CCN[C@@H](c3ccc(Cl)cc3Cl)C2)o[nH]1 | 0.2 |
| O=c1cc([C@H]2CCN[C@@H](c3ccc(F)cc3F)C2)o[nH]1 | 0.2 |
| CS(=O)(=O)c1ccc([C@H]2C[C@@H](c3cc(=O)[nH]o3)CCN2)cc1 | 0.2 |
| O=c1cc([C@H]2CCN[C@@H](c3ccc(C(F)(F)F)c(F)c3)C2)o[nH]1 | 0.2 |
